- System: Nucleic Acid
- Measurement Notes: Binding affinity to Escherichia coli JM83 pUC19 DNA assessed as DNA intercalation assay
- Format: nucleic-acid assay
Metric: SC50 (µM)
Give bare numbers, in µM.

Need SC50 for each of these compounds.
1. COc1ccc2nc3cc(Cl)ccc3c(NCCCN(CCCNc3c4ccc(Cl)cc4nc4ccc(OC)cc34)Cc3ccccn3)c2c1
2. COc1ccc2nc3cc(Cl)ccc3c(NCCCNCCCNc3c4ccc(Cl)cc4nc4ccc(OC)cc34)c2c1
3. COc1ccc2nc3cc(Cl)ccc3c(NCCCN(CCCNc3c4ccc(Cl)cc4nc4ccc(OC)cc34)Cc3ccccc3)c2c1
4. CCCN(CCCNc1c2ccc(Cl)cc2nc2ccc(OC)cc12)CCCNc1c2ccc(Cl)cc2nc2ccc(OC)cc12

Ans:
[2, 4, 2, 2]
